Target: T1, hNav1.7-loopA3-llama Fc fusion (human)
T1 construct: also called hNav1.7-loopA3-llFc; loopA3-llamaFc chimera
T1 chain: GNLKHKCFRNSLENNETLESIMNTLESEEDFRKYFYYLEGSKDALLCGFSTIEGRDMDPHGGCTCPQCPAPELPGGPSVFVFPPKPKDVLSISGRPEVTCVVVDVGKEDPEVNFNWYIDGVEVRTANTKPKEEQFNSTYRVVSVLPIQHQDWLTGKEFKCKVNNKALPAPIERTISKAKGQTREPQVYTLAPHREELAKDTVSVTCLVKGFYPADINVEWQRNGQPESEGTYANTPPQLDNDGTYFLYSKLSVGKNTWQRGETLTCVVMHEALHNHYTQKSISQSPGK
Assay: binding ELISA on coated loop-llama Fc chimera (20 ng/well), OD620
Procedure: For all DNA-immunization derived mAbs the binding affinity for the various hNav1.7-loop-llama Fc chimeras was tested in a binding ELISA. Therefore, a Maxisorp plate (Nunc) was coated with 20 ng/well of hNav1.7-loopA3-llama Fc, hNav1.7-loopB1-C1-D1-llama Fc or hNav1.7-loopC3-llama Fc. Remainder of the ELISA setup is as described above. […] Only at very high concentration minor cross-reactivity is observed for some clones.
measurement type: binding result

[
  {
    "binder": "9C3 (antibody, V domains shown, chimeric llama-human, human IgG1 constant domains) VH: EVQLVQPGAELRNPGTSVKVSCKTSGYYFTSSDIQWVRQAPAQGLEWMGRIDPEDGATKYAPKFQGRVTFTADTFTRTAYVELSNLRSDDTAVYYCMTAGGEYWGKGTLVTVSS VL: QPVLNQPSALSVSLGQTARITCQGGDFRNYYNNWYQQKPGQAPVLVIYEDSERPSGIPERFSGSSSGDTVILTVSRVQADDEADYYCQSSDSTDNAVFGGGTHLTVL",
    "reported": "binds"
  },
  {
    "binder": "9H4 (antibody, human IgG1, V domains shown) VH: EVQLVQPGAELRNPGASVKVSCKASGYIFTSAYIDWVRQAPGQGLEWMGRIDPEDGETRYAHQFRDRVTFTADTSTSTVYAELNSLRSEDTAVYYCAITIEGFWGQGTQVTVSS VL: ATMLTQSPGSLSVVPGESASISCKTSRSLVHSDGKTYLSWLLQKPGQSPQRLIYQVSNRGSGVPDRFTGSGSGTDFTLKISGVKAEDAGVYYCAQATYYPLSFGSGTRVEIK",
    "reported": "binds"
  },
  {
    "binder": "9A1 (antibody, V domains shown, chimeric llama-human, human IgG1 constant domains) VH: EVQLVQPGAELRNPGASVKVSCKASGDTFTDYYIHWVRQAPGQGLEWMGRIDPEDGGTKYTQKFQGRVTFTADTSTSTVYLELDSLRSEDTAVYYCVGDMDYWGKGTLVTVSS VL: QTVVTQEPSLSVSPGGTVTLTCGLSSGSVTFGNYPSWYQQTPGQAPRTLIYTTNSRHSGVPSRFSGSISGNKATLTISGAQPEDEADFYCALSRVSGTYGTVFGGGTHLTVL",
    "reported": "binds"
  }
]
